Biological target: T1, tissue factor (S33 to E251) (Homo sapiens, UniProt P13726)
T1 construct: tissue factor (TF), residues S33 to E251; the antigen of the antibody D3h44 in PDB 1JPS; The tag was removed with Ulp1; tag-free TF was used; Antigen residues named in the text (S202, K169, P194, I152) follow the numbering of PDB 1JPS, not that of the construct limits; also called TF; antigen; source: E. coli BL21 (DE3), purified (Ni-NTA, SEC); not shown: His6, N-terminal, cleaved; SUMO, …
T1 sequence (P13726 33-251): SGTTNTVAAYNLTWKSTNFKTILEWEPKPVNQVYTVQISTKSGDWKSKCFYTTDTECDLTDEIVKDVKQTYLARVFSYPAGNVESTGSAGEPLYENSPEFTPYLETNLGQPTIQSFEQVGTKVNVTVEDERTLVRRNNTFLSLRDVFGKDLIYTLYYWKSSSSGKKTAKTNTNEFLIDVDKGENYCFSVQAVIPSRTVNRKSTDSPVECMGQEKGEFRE
Assay: SPR; Biacore 8K; TF immobilised on a CM5 chip by amine coupling (450-750 response units); Fab as analyte; single-cycle kinetics, association 120 s, dissociation 1800 s, no regeneration; PBS with 0.005% Tween-20; three measurements
Conditions: both partners purified
For each of the binders below, state its kon.
# value in M⁻¹ s⁻¹; strip the unit string

Exam item: For D3h44 Fab H-A101V (Fab, V domains shown, as the heavy chain of m2 (PDB 1JPS chain H) with the stated change; as the light chain of m2 (PDB 1JPS chain L); Tag as for m2; source: ExpiCHO, purified (Ni-NTA, SEC)) VH: EVQLVESGGGLVQPGGSLRLSCAASGFNIKEYYMHWVRQAPGKGLEWVGLIDPEQGNTIYDPKFQDRATISADNSKNTAYLQMNSLRAEDTAVYYCARDTVAYFDYWGQGTLVTVSS VL: DIQMTQSPSSLSASVGDRVTITCRASRDIKSYLNWYQQKPGKAPKVLIYYATSLAEGVPSRFSGSGSGTDYTLTISSLQPEDFATYYCLQHGESPWTFGQGTKVEIK , what is its reported kon?
Marked response: 1.3e+06

Exam item: Please do the same for D3h44 Fab L-H91Q (Fab, V domains shown, as the heavy chain of m2 (PDB 1JPS chain H); as the light chain of m2 (PDB 1JPS chain L) with the stated change; Tag as for m2; source: ExpiCHO, purified (Ni-NTA, SEC)) VH: EVQLVESGGGLVQPGGSLRLSCAASGFNIKEYYMHWVRQAPGKGLEWVGLIDPEQGNTIYDPKFQDRATISADNSKNTAYLQMNSLRAEDTAVYYCARDTAAYFDYWGQGTLVTVSS VL: DIQMTQSPSSLSASVGDRVTITCRASRDIKSYLNWYQQKPGKAPKVLIYYATSLAEGVPSRFSGSGSGTDYTLTISSLQPEDFATYYCLQQGESPWTFGQGTKVEIK as well.
Marked response: 1.7e+06

Exam item: Also, D3h44 Fab H-A101S/H-A102H double-point mutant (Fab, V domains shown, as the heavy chain of m2 (PDB 1JPS chain H) with the stated changes; as the light chain of m2 (PDB 1JPS chain L); Tag as for m2; source: ExpiCHO, purified (Ni-NTA, SEC)) VH: EVQLVESGGGLVQPGGSLRLSCAASGFNIKEYYMHWVRQAPGKGLEWVGLIDPEQGNTIYDPKFQDRATISADNSKNTAYLQMNSLRAEDTAVYYCARDTSHYFDYWGQGTLVTVSS VL: DIQMTQSPSSLSASVGDRVTITCRASRDIKSYLNWYQQKPGKAPKVLIYYATSLAEGVPSRFSGSGSGTDYTLTISSLQPEDFATYYCLQHGESPWTFGQGTKVEIK please.
Marked response: 1.2e+06
